Sourced from patent US20110053770A1

Item-by-item account of log P (**)
Test: logP by HPLC on reversed-phase columns (C 18), EEC directive 79/831 Annex V.A8
Assay type: physicochemical
Conditions: LC-MS, acidic range, pH 2.7, 0.1% aqueous formic acid and acetonitrile
Marks after values point to notes of the source that are not given here.

{"columns": ["compound", "assay.endpoint", "obs.value"],
 "data": [
  ["Clc1ccc(-c2csc(N=C3CCCCN3)n2)c(Cl)c1 [compound 4]", "log P (**)", "1.8**"],
  ["c1ccc(-c2ccccc2-c2csc(N=C3CCCCN3)n2)cc1", "log P (**)", "1.82**"]
]}

# next compound below
Exam item: Tell me the measured log P (**) of c1ccc(-c2csc(N=C3CCCCN3)n2)nc1 , please.
Marked response: 0.27**

###

Assay: logP by HPLC on reversed-phase columns (C 18), EEC directive 79/831 Annex V.A8
Assay type: physicochemical
Details: LC-MS, acidic range, pH 2.7, 0.1% aqueous formic acid and acetonitrile
Protocol: Calibration was carried out using unbranched alkan-2-ones (having from 3 to 16 carbon atoms) with known logP values (the logP values were determined by the retention times using linear interpolation between two successive alkanones).
So basically: is log P (**) under 2? Then true. Not under? Then false.

{"columns": ["compound", "group"],
 "data": [
  ["Cc1sc(N=C2CCCCN2)nc1-c1ccc(Cl)cc1", "true"],
  ["Clc1ccccc1-c1csc(N=C2CCCCN2)n1", "true"],
  ["CC(=O)N1CCCCC1=Nc1nc(-c2cc(F)cc(F)c2)cs1", "false"],
  ["Clc1ccc(-c2csc(N=C3CCCCN3)n2)cc1 [compound 103]", "true"],
  ["Fc1ccc(-c2csc(N=C3CCCCN3)n2)cc1Cl", "true"]
]}

Exam item: Does this compound meet the criterion log P (**) < 2? CC(C)(C)Cc1cccc(-c2csc(N=C3CCCCN3)n2)c1
Marked response: false

Exam item: Does this compound meet the criterion log P (**) < 2? Fc1ccc(Oc2ccccc2-c2csc(N=C3CCCCN3)n2)c(F)c1
Marked response: false

Exam item: Does this compound meet the criterion log P (**) < 2? Fc1ccc(-c2csc(N=C3CCCCN3)n2)cc1F
Marked response: true

Exam item: Does this compound meet the criterion log P (**) < 2? FC(F)(F)c1cc(-c2csc(N=C3CCCCN3)n2)cc(C(F)(F)F)c1
Marked response: false

Exam item: Does this compound meet the criterion log P (**) < 2? Clc1ccc(-c2csc(N=C3CCCCN3)n2)c(Cl)c1 [compound 104]
Marked response: true

Exam item: Does this compound meet the criterion log P (**) < 2? CC(=O)N1CCCCC1=Nc1nc(-c2cccc(Cl)c2Cl)cs1
Marked response: false

Exam item: Does this compound meet the criterion log P (**) < 2? Cc1ccc(Oc2ccccc2-c2csc(N=C3CCCCN3)n2)c(C)c1
Marked response: false

###

Assay: logP by HPLC on reversed-phase columns (C 18), EEC directive 79/831 Annex V.A8
Type: physicochemical
Details: LC-MS, acidic range, pH 2.7, 0.1% aqueous formic acid and acetonitrile
Marks after values point to notes of the source that are not given here.
assay.endpoint: log P (**)

Exam item: Tell me the measured log P (**) of Cc1cccc(-c2ccccc2-c2csc(N=C3CCCCN3)n2)c1 , please.
Marked response: 2**

Exam item: Tell me the measured log P (**) of CC(=O)N1CCCCC1=Nc1nc(-c2cccc(F)c2F)cs1 , please.
Marked response: 3.63**; 3.63***; 3.63*

Exam item: Tell me the measured log P (**) of COc1ccc(-c2ccccc2-c2csc(N=C3CCCCN3)n2)cc1 , please.
Marked response: 1.83**

Exam item: Tell me the measured log P (**) of Brc1ccc(-c2csc(N=C3CCCCN3)n2)cc1 , please.
Marked response: 1.67**

Exam item: Tell me the measured log P (**) of FC(F)Oc1ccc(-c2csc(N=C3CCCCN3)n2)cc1 , please.
Marked response: 1.44**

Exam item: Tell me the measured log P (**) of Brc1cccc(-c2csc(N=C3CCCCN3)n2)c1 [compound 46] , please.
Marked response: 1.8**

Exam item: Tell me the measured log P (**) of Brc1cccc(-c2csc(N=C3CCCCN3)n2)c1 [compound 106] , please.
Marked response: 1.53**

Exam item: Tell me the measured log P (**) of Clc1cccc(Cl)c1-c1csc(N=C2CCCCN2)n1 , please.
Marked response: 1.42**

Exam item: Tell me the measured log P (**) of Clc1ccc(-c2ccccc2-c2csc(N=C3CCCCN3)n2)cc1Cl , please.
Marked response: 2.2**

Exam item: Tell me the measured log P (**) of Clc1cccc(-c2csc(N=C3CCCCN3)n2)c1 , please.
Marked response: 1.37**

Exam item: Tell me the measured log P (**) of c1ccc(Oc2ccccc2-c2csc(N=C3CCCN3)n2)cc1 , please.
Marked response: 2.05

Exam item: Tell me the measured log P (**) of FC(F)(F)Oc1ccc(-c2csc(N=C3CCCCN3)n2)cc1 , please.
Marked response: 1.78**

Exam item: Tell me the measured log P (**) of Brc1ccccc1-c1csc(N=C2CCCCN2)n1 [compound 107] , please.
Marked response: 1.38**
